system: sugar beet (Beta vulgaris); assay: Test B pre-/postemergence; type: in vivo; settings: Rate 500 g/ha, Preemergence
MEASURE: Plant response rating, Sugarbeets
One number for each entry.

Example cases with answers are listed next.
{"columns": ["COMPOUND", "Plant response rating, Sugarbeets"],
 "data": [
  ["Cc1cnc(-c2ccc(C(F)(F)F)cc2)nc1Cn1cc(Br)cn1 [Compound 54]", 9],
  ["Cc1cnc(-n2ccc(C(F)(F)C(F)(F)F)n2)nc1C(=O)c1cccc(OC(F)(F)F)c1 [Compound 62]", 10],
  ["Cc1cnc(-n2cnc(C(F)(F)F)n2)nc1C(=O)c1cccc(OC(F)(F)F)c1 [Compound 64]", 10],
  ["Cc1cnc(-n2ccc(C(F)(F)F)n2)nc1C(=O)c1ccc(C(F)(F)F)cc1 [Compound 65]", 0],
  ["Cc1cnc(-c2ccc(Cl)cc2)nc1Cn1ccc(C(F)(F)F)n1 [Compound 6]", 10]
]}

For each of the items listed, what is its Plant response rating, Sugarbeets?
1. Cc1cnc(-c2ccc(C(F)(F)F)cc2)nc1Cn1ccc(C#N)n1 [Compound 53]
2. Cc1cnc(-c2ccc(C(F)(F)F)cc2)nc1Cn1cnc(C(F)(F)F)n1 [Compound 11]
3. Cc1cnc(-c2ccc(C(F)(F)F)cc2)nc1Cn1cnc(C(F)(F)F)c1 [Compound 10]
4. Cc1cnc(-c2ccccc2)nc1Cn1ccc(C(F)(F)F)n1 [Compound 7]
5. Cc1cnc(-c2ccc(C(F)(F)F)cc2)nc1Cn1ccc(C(F)(F)C(F)(F)F)n1 [Compound 14]
6. Cc1cnc(-n2ccc(C(F)(F)F)n2)nc1C(=O)c1cccc(OC(F)(F)F)c1 [Compound 66]

1: 9; 2: 10; 3: 10; 4: 1; 5: 9; 6: 10

Record request: Plant response rating, Sugarbeets value, item Cc1cnc(-n2ccc(C(F)(F)F)n2)nc1Cn1ccc(C(F)(F)F)n1 [Compound 52]
10

* * *

tested on: duck salad (Heteranthera limosa); experiment: Test B flood test; format: in vivo; details: Rate 62 g/ha, Postemergence (flood test)
MEASURE: Plant response rating, Ducksalad
Give bare numbers.

For each of the items listed, what is its Plant response rating, Ducksalad?
1. Cc1cnc(-c2ccc(F)cc2F)nc1Cc1cccc(C(F)(F)F)c1
2. Cc1cnc(-c2ccc(Cl)c(Cl)c2)nc1Cc1cccc(C#N)c1
3. Cc1cnc(-c2ccc(Cl)cc2F)nc1Cc1cccc(C#N)c1
4. Cc1cnc(-n2ccc(C(F)(F)F)n2)nc1Cn1ccc(C(F)(F)F)n1

1: 1; 2: 0; 3: 0; 4: 9

For each of the items listed, what is its Plant response rating, Ducksalad?
1. CCc1cnc(-c2ccc(C(F)(F)F)cc2)nc1Cc1cccc(OC(F)(F)F)c1
2. COc1cnc(-c2ccc(C(F)(F)F)cc2)nc1Cc1cccc(C(F)(F)F)c1
3. Cc1cnc(-c2ccccc2F)nc1Cc1cccc(C(F)(F)F)c1
4. COC(c1cccc(C(F)(F)F)c1)c1nc(-c2ccc(C(F)(F)F)cc2)ncc1C (racemic)

[2, 2, 0, 0]

Fill in the recorded Plant response rating, Ducksalad for this compound, with duck salad (Heteranthera limosa) as test system: Cc1cnc(-c2cccc(C(F)(F)F)c2)nc1Cc1cccc(C(F)(F)F)c1
0

* * *

system: bedstraw (Galium aparine); experiment: Test B pre-/postemergence; format: in vivo; settings: Rate 500 g/ha, Preemergence
Please go through the items and note down their Plant response rating, Bedstraw.
Answers are plain numbers.

{"columns": ["CHEM SMILES", "TESTED ON", "Plant response rating, Bedstraw"],
 "data": [
  ["Cc1cnc(-c2ccc(C(F)(F)F)cc2)nc1Cn1cc(I)cn1", "bedstraw (Galium aparine)", 8],
  ["Cc1cnc(-c2ccc(C(F)(F)F)cc2)nc1C(=O)c1cccc(OC(F)(F)F)c1", "bedstraw (Galium aparine)", 8],
  ["Cc1cnc(-n2ccc(C(F)(F)C(F)(F)F)n2)nc1C(=O)c1cccc(OC(F)(F)F)c1", "bedstraw (Galium aparine)", 6],
  ["Cc1cnc(-n2ccc(C(F)(F)F)n2)nc1Cc1cccc(C(F)(F)F)c1", "bedstraw (Galium aparine)", 10],
  ["Cc1cnc(-n2ccc(C(F)(F)F)n2)nc1C(=O)c1cccc(C(F)(F)F)c1", "bedstraw (Galium aparine)", 8]
]}

For each of the items listed, what is its Plant response rating, Bedstraw?
1. Cc1cnc(-n2ccc(C(F)(F)C(F)(F)F)n2)nc1C(=O)c1cccc(C(F)(F)F)c1
2. Cc1cnc(-c2ccc(C(F)(F)F)cc2)nc1Cc1cccc(C(F)(F)F)c1

[6, 9]

* * *

Please go through the items and note down their Plant response rating, Corn.
test system: corn (Zea mays); assay: Test B pre-/postemergence; format: in vivo; parameters: key: 0 is no effect; 10 is complete control; conditions: Rate 250 g/ha, Preemergence

Example cases with answers are listed next.
{"columns": ["COMPOUND", "MEASURE", "ASSAY VALUE"],
 "data": [
  ["Cc1cnc(-c2ccc(C(F)(F)F)cc2)nc1Cn1cnc(C(F)(F)F)c1 [Compound 10]", "Plant response rating, Corn", 0],
  ["Cc1cnc(-c2ccc(C(F)(F)F)cc2)nc1Cc1cccc(C(F)(F)F)c1 [Example 1]", "Plant response rating, Corn", 2],
  ["COc1cnc(-c2ccc(C(F)(F)F)cc2)nc1Cc1cccc(C(F)(F)F)c1 [Compound 23]", "Plant response rating, Corn", 1],
  ["COC(c1cccc(C(F)(F)F)c1)c1nc(-c2ccc(C(F)(F)F)cc2)ncc1C (racemic) [Compound 20]", "Plant response rating, Corn", 0],
  ["Cc1cnc(-n2ccc(C(F)(F)F)n2)nc1Cn1ccc(C(F)(F)F)n1 [Compound 52]", "Plant response rating, Corn", 7]
]}

For each of the items listed, what is its Plant response rating, Corn?
1. Cc1cnc(-c2cccc(C(F)(F)F)c2)nc1Cc1cccc(C(F)(F)F)c1 [Compound 24]
2. Cc1cnc(-n2cnc(C(F)(F)F)c2)nc1C(=O)c1cccc(C(F)(F)F)c1 [Compound 61]
3. Cc1cnc(-c2ccccc2)nc1Cn1ccc(C(F)(F)F)n1 [Compound 7]
4. Cc1cnc(-c2ccc(C(F)(F)F)cc2)nc1Cn1cc(I)cn1 [Compound 12]

[0, 1, 0, 0]

* * *

Please go through the items and note down their Plant response rating, Crabgrass.
system: crabgrass (Digitaria sanguinalis); test: Test B pre-/postemergence; format: in vivo; set-up: key: 0 is no effect; 10 is complete control; conditions: Preemergence, Rate 62 g/ha; scale of 0 to 10
Numbers only.

Example cases with answers are listed next.
{"columns": ["CHEM SMILES", "Plant response rating, Crabgrass"],
 "data": [
  ["Cc1cnc(-c2ccc(C(F)(F)F)cc2)nc1C(=O)c1ccc(C(F)(F)F)cc1", 0],
  ["COc1cnc(-n2ccc(C(F)(F)F)n2)nc1C(=O)c1cccc(C(F)(F)F)c1", 0],
  ["Cc1cnc(-n2cnc(C(F)(F)F)n2)nc1C(=O)c1cccc(OC(F)(F)F)c1", 9]
]}

For each of the items listed, what is its Plant response rating, Crabgrass?
1. Cc1cnc(-n2ccc(C(F)(F)C(F)(F)F)n2)nc1C(=O)c1cccc(C(F)(F)F)c1
2. CCc1cnc(-n2cnc(C(F)(F)F)c2)nc1C(=O)c1cccc(OC(F)(F)F)c1

[3, 2]

* * *

test system: smallflower flatsedge (Cyperus difformis); assay: Test B flood test; type: in vivo; set-up: key: 0 is no effect; 10 is complete control; settings: Rate 250 g/ha, Postemergence (flood test species)
Binary call on Plant response rating, S. Flatsedge with cut-off 8: strictly below means label 1, and equality or higher means label 0.

Solved entries (count: 5):
{"columns": ["COMPOUND", "ANSWER LABEL"],
 "data": [
  ["COc1cnc(-n2ccc(C(F)(F)F)n2)nc1Cc1cccc(C(F)(F)F)c1 [Compound 45]", "label 1"],
  ["Cc1cnc(-c2ccc(C(F)(F)F)cc2)nc1Cn1cc(Br)cn1 [Compound 54]", "label 0"],
  ["Cc1cnc(-c2ccc(C(F)(F)F)cc2)nc1Cc1cccc(C#N)c1 [Compound 32]", "label 1"],
  ["CCc1cnc(-n2cnc(C(F)(F)F)c2)nc1Cc1cccc(OC(F)(F)F)c1 [Compound 49]", "label 0"],
  ["Cc1cnc(-c2ccc(C(F)(F)F)cc2)nc1C(=O)c1ccc(C(F)(F)F)cc1 [Compound 74]", "label 1"]
]}

Report whether reported Plant response rating, S. Flatsedge is lower than 8 (strictly) for COc1cnc(-c2ccc(C(F)(F)F)cc2)nc1Cc1cccc(C(F)(F)F)c1 [Compound 23]
label 0

Report whether reported Plant response rating, S. Flatsedge is lower than 8 (strictly) for Cc1cnc(-c2cccc(C(F)(F)F)c2)nc1Cc1cccc(C#N)c1 [Compound 39]
label 1

* * *

system: giant foxtail (Setaria faberii); test: Test B pre-/postemergence; type: in vivo; set-up: key: 0 is no effect; 10 is complete control; conditions: Rate 250 g/ha, Postemergence (so in the source)
MEASURE: Plant response rating, Giant foxtail

{"columns": ["CHEM SMILES", "MEASURE", "ASSAY VALUE"],
 "data": [
  ["CCc1cnc(-n2ccc(C(F)(F)F)n2)nc1Cc1cccc(OC(F)(F)F)c1", "Plant response rating, Giant foxtail", 10],
  ["CCc1cnc(-c2ccc(C(F)(F)F)cc2)nc1Cc1cccc(OC(F)(F)F)c1", "Plant response rating, Giant foxtail", 10],
  ["Cc1cnc(-c2ccc(Cl)cc2)nc1Cc1cccc(C#N)c1", "Plant response rating, Giant foxtail", 1]
]}

For each of the items listed, what is its Plant response rating, Giant foxtail?
1. Cc1cnc(-c2ccc(Cl)cc2)nc1Cc1cccc(C(F)(F)F)c1
2. Cc1cnc(-n2cnc(C(F)(F)F)n2)nc1Cc1cccc(C(F)(F)F)c1
3. Cc1cnc(-n2ccc(C(F)(F)F)n2)nc1Cc1cccc(OC(F)(F)F)c1

10
9
10

Entry source: patent US6525001B1
